Biological target: TDP-43 (Homo sapiens, UniProt Q13148)
Sequence (Q13148 whole entry): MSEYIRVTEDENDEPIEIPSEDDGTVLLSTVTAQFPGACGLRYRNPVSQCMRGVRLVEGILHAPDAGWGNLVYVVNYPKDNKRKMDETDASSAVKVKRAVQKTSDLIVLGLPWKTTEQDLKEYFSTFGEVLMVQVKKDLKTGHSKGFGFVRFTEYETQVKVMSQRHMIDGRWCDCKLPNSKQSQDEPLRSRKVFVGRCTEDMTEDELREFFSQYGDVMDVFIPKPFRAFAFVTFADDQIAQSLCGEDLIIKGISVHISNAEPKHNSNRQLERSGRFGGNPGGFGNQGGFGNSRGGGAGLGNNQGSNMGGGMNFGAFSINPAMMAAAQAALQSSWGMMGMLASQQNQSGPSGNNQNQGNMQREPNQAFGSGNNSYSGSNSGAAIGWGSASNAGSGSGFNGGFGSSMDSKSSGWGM
Where a name gives a salt, the structure may show the parent alone.
IC50 less than 200 nM is Satisfied; IC50 greater than or equal to 200 nM is Not satisfied.

Enquiry: Does the reported IC50 of the following molecule sit strictly below 200 nM? COc1ccc(-c2cc(NCCCN3CC4CCNCC4C3)c3ccccc3n2)cc1 (centres unmarked) [Example 36, dihydrochloride]
Return: Satisfied

###

Target: TDP-43 (Homo sapiens, UniProt Q13148)
Each entry below carries its reported pIC50.
Keep it numeric: pIC50 is minus log10 of the concentration in mol/L.

compound="COc1ccc(-c2cc(NCCCN(CCCN(C)C)CC3CCN(C(=O)OC(C)(C)C)CC3)c3ccccc3n2)cc1 [Example 19]" recorded_measurement=6.02

Now for the compound whose pIC50 we want.
Enquiry: Param item = COc1ccc(-c2cc(NC3CCC(NCCCNC(=O)OC(C)(C)C)CC3)c3ccccc3n2)cc1 (centres unmarked) [Example 61] ; retrieve measured pIC50.
Return: 5.87

###

Form: system (TDP-43 (Homo sapiens)), quantity (pIC50), values below.
Keep it numeric: pIC50 is minus log10 of the concentration in mol/L.

// worked examples, pIC50 included
compound="COc1ncc(-c2cc(NCCCN(C)C)c3ccccc3n2)cn1 [Example 136]" target_of_assay="TDP-43 (Homo sapiens)" measure=pIC50 recorded_measurement=4.41
compound="COCCCNCCCNc1cc(-c2ccc(OC)cc2)nc2ccccc12 [Example 15]" target_of_assay="TDP-43 (Homo sapiens)" measure=pIC50 recorded_measurement=6.10

Now for the compound whose pIC50 we want.
Enquiry: Param item = COc1ccc(-c2cc(NCCCN(C)C)c3cc4c(cc3n2)OC(F)(F)O4)cc1 [Example 140] ; retrieve measured pIC50.
Return: 5.18

###

Molecular target: TDP-43 (Homo sapiens)
Counter-ions that a name gives are not always drawn.
IC50 less than 0.8 µM is 1.0; IC50 greater than or equal to 0.8 µM is 0.0.

molecule="COc1ccc(-c2cc(NCCCN(C)CCCNC(=O)Cc3c(C)c4ccc(N)cc4oc3=O)c3ccccc3n2)cc1 [Example 77, trihydrochloride]" label_class=1.0
molecule=CNCCCN(C)CCCNc1cc(-c2ccc(OC)cc2)nc2ccccc12 label_class=1.0
molecule="CNCCCCN(C)CCCNc1cc(-c2ccc(OC)cc2)nc2ccccc12 [Example 12, trihydrochloride]" label_class=1.0
molecule=CN(C)CCCNc1cc(-c2ccc(N3CCN(C)C(=O)C3)cc2)nc2ccccc12 label_class=1.0
molecule=COc1ccc(-c2cc(NCCCO)c3ccccc3n2)cc1 label_class=0.0

Enquiry: Does the reported IC50 of the following molecule sit strictly below 0.8 µM? COc1ccc(-c2cc(NCCCN(CCCN(C)C)CC3CNC3)c3ccccc3n2)cc1
Return: 1.0

Enquiry: Would you kindly repeat that for COc1ccc(-c2cc(NCCCN3CCC(O)CC3)c3ccccc3n2)cc1 ?
Return: 1.0

Enquiry: Would you kindly repeat that for COc1ccc(-c2cc(NCCCN3CCC4(C3)CN(C(=O)OC(C)(C)C)C4)c3ccccc3n2)cc1 ?
Return: 0.0

Enquiry: Would you kindly repeat that for COc1cc2c(NCCCN(C)C)ccnc2cc1OCCCN1CCCC1 ?
Return: 1.0

Enquiry: Would you kindly repeat that for COc1ccc(-c2cc(NC3CCN(CCCN)CC3)c3ccccc3n2)cc1 ?
Return: 1.0

Enquiry: Would you kindly repeat that for COc1ccc(-c2cc(NCCC3CCCCN3CCCN)c3ccccc3n2)cc1 (stereo not shown) [Example 39, dihydrochloride] ?
Return: 1.0

Enquiry: Would you kindly repeat that for [2H]C([2H])([2H])Oc1ccc(-c2cc(NCCCN)c3ccccc3n2)cc1 ?
Return: 1.0

Enquiry: Would you kindly repeat that for NCCCNc1cc(-c2ccc3c(c2)CCO3)nc2ccccc12 ?
Return: 1.0

Enquiry: Would you kindly repeat that for COc1ccc(-c2cc(NCCCN3CCC(C(N)=O)CC3)c3ccccc3n2)cc1 [Example 72, dihydrochloride] ?
Return: 0.0

Enquiry: Would you kindly repeat that for CC(C)C(N)C(=O)NC(C(=O)N1CCN(c2ccc(-c3cc(NCCCN(C)C)c4ccccc4n3)cc2)CC1)C(C)C (stereo not shown) ?
Return: 1.0

Enquiry: Would you kindly repeat that for COc1ccc(-c2cc(N[C@H]3CC[C@H](N)CC3)c3cc(OC)c(OC)cc3n2)cc1 ?
Return: 1.0

Enquiry: Would you kindly repeat that for COc1ccc(-c2cc(NCCCN3CCN4CCCC4C3)c3ccccc3n2)cc1 (stereo not shown) [Example 68, dihydrochloride] ?
Return: 0.0

Enquiry: Would you kindly repeat that for COc1ccc(-c2cc(NCCCN(CCCN)C(C)=O)c3ccccc3n2)cc1 ?
Return: 0.0
